Test: toxicity in rat (DL50, oral)
Details: in vivo, read-out: toxicity in rat expressed as DL50
Metric Name: LD50

{"Smi": "COc1ccccc1N1CCN(CCc2[nH]c(=O)[nH]c2-c2ccc(F)cc2)CC1", "Observed": "> 2000 mg/kg"}

# credit: patent US5059601A
